Listed here: items and their measured mass density.
Conditions: 313.15 K; 101 kPa; Liquid
measure.name: mass density (kg/m3)

{"compound": "CCOC(=O)CCl [ethyl chloroethanoate]", "measure.name": "mass density", "obs.value": 1125.9}
{"compound": "CCOC(=O)CC#N [ethyl cyanoacetate]", "measure.name": "mass density", "obs.value": 1040.8}
{"compound": "CNC(C)=O [N-methylacetamide]", "measure.name": "mass density", "obs.value": 943.6}
{"compound": "CCOC(C)=O [ethyl acetate]", "measure.name": "mass density", "obs.value": 875.9}

* * *

Overview of reported speed of sound across a group of molecules:
Settings: 308.15 K; 101 kPa; Liquid

{"molecule": "CNC(C)=O [N-methylacetamide]", "speed of sound (m/s)": 1362}
{"molecule": "CCOC(C)=O [ethyl acetate]", "speed of sound (m/s)": 1098}
{"molecule": "CCOC(=O)CCl [ethyl chloroethanoate]", "speed of sound (m/s)": 1212}
{"molecule": "CCOC(=O)CC#N [ethyl cyanoacetate]", "speed of sound (m/s)": 1385}
